Data credit: patent US10537565B2

# MEASUREMENT PROTOCOL: Bioavailability (PK) of solid state forms of Compound 1 in rat, oral dosing compared to IV solution
# CONDITION DESCRIPTION: in vivo, 200 mg/kg, % F
REPORTED ENDPOINT: bioavailability (%)
// note: answer is a bare numeric in %

What value of bioavailability has been recorded for this entry: `CC(C)(C)c1cc(C(C)(C)C)c(NC(=O)c2c[nH]c3ccccc3c2=O)cc1O`
67

###

# MEASUREMENT PROTOCOL: Bioavailability (PK) of solid state forms of Compound 1 in rat, oral dosing compared to IV solution
# CONDITION DESCRIPTION: in vivo, 50 mg/kg, % F
REPORTED ENDPOINT: bioavailability (%)
// note: answer is a bare numeric in %

What value of bioavailability has been recorded for this entry: `CC(C)(C)c1cc(C(C)(C)C)c(NC(=O)c2c[nH]c3ccccc3c2=O)cc1O`
74

###

# MEASUREMENT PROTOCOL: Bioavailability (PK) of solid state forms of Compound 1 in rat, oral dosing compared to IV solution
# CONDITION DESCRIPTION: in vivo, po, 50 mg/kg, Tmax
REPORTED ENDPOINT: Tmax (h)
// note: answer is a bare numeric in h

What value of Tmax has been recorded for this entry: CC(C)(C)c1cc(C(C)(C)C)c(NC(=O)c2c[nH]c3ccccc3c2=O)cc1O [Crystalline]
5.5
